# target-or-system: Human TRPA1 expressing CHO cells (Homo sapiens)
# test-name: 45Calcium uptake assay: inhibition of AITC induced cellular uptake of radioactive calcium
# condition-label: AITC 30 μM; human TRPA1 CHO cells; read-out: IC50 value (range)

| structure-smiles | IC50 |
| --- | --- |
| Cn1c(=O)c2c(CC(=O)Nc3nc(-c4ccc(F)c(OC(F)(F)F)c4)cs3)cccc2n(C)c1=O | 50.1 to 100 nM |
| Cn1c(=O)c2c(CC(=O)Nc3ccn(-c4ccc(Cl)cc4F)n3)cccc2n(C)c1=O | > 100 nM |
| CC(C)CCOc1ccc(-c2csc(NC(=O)Cc3cccc4c3c(=O)n(C)c(=O)n4C)n2)cc1 | 50.1 to 100 nM |
| Cn1c(=O)c2c(CC(=O)Nc3nc(-c4cccc(F)c4F)cs3)cccc2n(C)c1=O | 50.1 to 100 nM |
| CC(C)Cc1ccc(-c2csc(NC(=O)Cc3cccc4c3c(=O)n(C)c(=O)n4C)n2)cc1 | < 50 nM |
| Cn1c(=O)c2c(CC(=O)Nc3nc(-c4ccc(C(F)(F)F)cc4F)cs3)cccc2n(C)c1=O | < 50 nM |
| Cn1c(=O)c2c(CC(=O)Nc3nc4c(s3)CCc3cc(Cl)ccc3-4)cccc2n(C)c1=O | > 100 nM |
| Cn1c(=O)c2c(CC(=O)Nc3nc(-c4ccc(Cl)c(C(F)(F)F)c4)cs3)cccc2n(C)c1=O | < 50 nM |
| Cn1c(=O)c2c(CC(=O)Nc3nc(-c4cc(F)c(OCC(F)(F)F)c(F)c4)cs3)cccc2n(C)c1=O | < 50 nM |
| Cn1c(=O)c2c(CC(=O)Nc3nc(-c4cn(C)c5ccccc45)cs3)cccc2n(C)c1=O | > 100 nM |
| Cn1c(=O)c2c(CC(=O)Nc3nc(-c4ccc(Cl)cc4Cl)cs3)cccc2n(C)c1=O | > 100 nM |
| Cn1c(=O)c2c(CC(=O)Nc3nc(-c4c(F)ccc(C(F)(F)F)c4F)cs3)cccc2n(C)c1=O | > 100 nM |
| Cn1c(=O)c2c(CC(=O)Nc3nc(-c4ccc(C(F)(F)F)c(F)c4F)cs3)cccc2n(C)c1=O | < 50 nM |
| Cn1c(=O)c2c(CC(=O)Nc3nc(-c4ccc(Cl)cc4)cs3)cccc2n(C)c1=O | 50.1 to 100 nM |
| Cn1c(=O)c2c(CC(=O)Nc3ccn(-c4ccc(Cl)cc4)n3)cccc2n(C)c1=O | 50.1 to 100 nM |
| Cn1c(=O)c2c(CC(=O)Nc3nc(-c4cc(C(F)(F)F)ccc4F)cs3)cccc2n(C)c1=O | > 100 nM |
| Cn1c(=O)c2c(CC(=O)Nc3nc(-c4c(F)ccc(F)c4F)cs3)cccc2n(C)c1=O | > 100 nM |
| Cn1c(=O)c2c(CC(=O)Nc3nc(-c4cccc(Cl)c4F)cs3)cccc2n(C)c1=O | 50.1 to 100 nM |
| Cn1c(=O)c2c(CC(=O)Nc3nc(-c4cc(F)c(OC(F)F)c(F)c4)cs3)cccc2n(C)c1=O | < 50 nM |

* * *

# target-or-system: Human TRPA1 expressing CHO cells (Homo sapiens, UniProt O75762)
# Sequence (O75762 whole entry): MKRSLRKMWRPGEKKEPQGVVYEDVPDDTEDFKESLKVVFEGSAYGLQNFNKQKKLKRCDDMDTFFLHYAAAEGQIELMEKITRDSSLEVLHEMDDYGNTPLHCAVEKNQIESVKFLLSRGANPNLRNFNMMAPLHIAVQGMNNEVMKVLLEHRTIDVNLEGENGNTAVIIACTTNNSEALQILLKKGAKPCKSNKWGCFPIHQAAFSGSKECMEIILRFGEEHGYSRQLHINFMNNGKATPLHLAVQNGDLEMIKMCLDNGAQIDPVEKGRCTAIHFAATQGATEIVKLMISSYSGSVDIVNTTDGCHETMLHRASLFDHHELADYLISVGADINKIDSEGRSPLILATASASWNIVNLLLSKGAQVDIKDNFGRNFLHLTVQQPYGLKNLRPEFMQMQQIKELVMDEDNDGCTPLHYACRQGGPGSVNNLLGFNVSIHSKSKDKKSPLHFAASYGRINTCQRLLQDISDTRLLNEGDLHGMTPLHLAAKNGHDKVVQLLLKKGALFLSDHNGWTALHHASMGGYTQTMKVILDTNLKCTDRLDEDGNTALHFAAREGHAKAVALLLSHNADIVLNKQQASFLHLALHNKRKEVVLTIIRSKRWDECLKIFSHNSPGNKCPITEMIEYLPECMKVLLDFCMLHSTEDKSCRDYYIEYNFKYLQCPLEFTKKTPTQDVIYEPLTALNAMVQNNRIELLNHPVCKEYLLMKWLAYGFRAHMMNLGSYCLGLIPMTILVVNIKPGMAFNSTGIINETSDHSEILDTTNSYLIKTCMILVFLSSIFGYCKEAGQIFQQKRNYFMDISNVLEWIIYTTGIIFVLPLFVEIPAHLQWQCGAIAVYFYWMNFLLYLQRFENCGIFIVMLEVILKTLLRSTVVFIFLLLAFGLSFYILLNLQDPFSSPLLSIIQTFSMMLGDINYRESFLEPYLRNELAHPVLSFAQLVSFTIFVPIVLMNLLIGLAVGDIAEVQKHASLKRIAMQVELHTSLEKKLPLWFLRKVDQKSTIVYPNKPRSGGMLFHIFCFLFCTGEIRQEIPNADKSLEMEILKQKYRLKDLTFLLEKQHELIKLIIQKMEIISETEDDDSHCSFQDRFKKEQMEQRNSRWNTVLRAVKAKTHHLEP
# test-name: 45Calcium uptake assay: inhibition of AITC induced cellular uptake of radioactive calcium
# condition-label: AITC 30 μM; human TRPA1 CHO cells; read-out: IC50 value (range)
pIC50: −log10 of the molar value.
Property: pIC50; scope: individual compounds

| structure-smiles | target-or-system | pIC50 |
| --- | --- | --- |
| Cn1c(=O)c2c(CC(=O)Nc3nc(-c4ccc(Cl)c(Cl)c4)cs3)cccc2n(C)c1=O | Human TRPA1 expressing CHO cells (Homo sapiens, UniProt O75762) | 7.00 to 7.30 |
| Cn1c(=O)c2c(CC(=O)Nc3nc(-c4ccc(OCC(F)(F)F)c(F)c4)cs3)cccc2n(C)c1=O | Human TRPA1 expressing CHO cells (Homo sapiens, UniProt O75762) | > 7.30 |
| Cn1c(=O)c2c(CC(=O)Nc3nc(-c4cc(Cl)cc(Cl)c4)cs3)cccc2n(C)c1=O | Human TRPA1 expressing CHO cells (Homo sapiens, UniProt O75762) | 7.00 to 7.30 |
